Assay: Solubility of brexanolone by visual assessment of dissolution in various solvents
Assay type: physicochemical
Settings: organic solvent or mixture, thermodynamic from solid; solvent Isopropyl ether (IPE); RT (~22° C.); read-out: Solubility at RT
value_type: solubility

Challenge: Tell us which solubility value is on record for CC(=O)[C@H]1CC[C@H]2[C@@H]3CC[C@H]4C[C@H](O)CC[C@]4(C)[C@H]3CC[C@]12C
Response given: 6000 to 11000 µg/mL

====

Assay: Solubility of brexanolone by visual assessment of dissolution in various solvents
Type: physicochemical
Settings: organic solvent or mixture, thermodynamic from solid; solvent Acetonitrile (MeCN); RT (~22° C.); read-out: Solubility at RT
value_type: solubility

Challenge: Tell us which solubility value is on record for CC(=O)[C@H]1CC[C@H]2[C@@H]3CC[C@H]4C[C@H](O)CC[C@]4(C)[C@H]3CC[C@]12C
Response given: 6000 to 10000 µg/mL

====

Assay: Solubility of brexanolone by visual assessment of dissolution in various solvents
Type: physicochemical
Conditions: thermodynamic from solid; solvent Water; RT (~22° C.); read-out: Solubility at RT
value_type: solubility

Challenge: Tell us which solubility value is on record for CC(=O)[C@H]1CC[C@H]2[C@@H]3CC[C@H]4C[C@H](O)CC[C@]4(C)[C@H]3CC[C@]12C
Response given: < 6000 µg/mL

====

Test: Solubility of brexanolone by visual assessment of dissolution in various solvents
Format: physicochemical
Conditions: organic solvent or mixture, thermodynamic from solid; solvent Toluene; RT (~22° C.); read-out: Solubility at RT
value_type: solubility

Challenge: Tell us which solubility value is on record for CC(=O)[C@H]1CC[C@H]2[C@@H]3CC[C@H]4C[C@H](O)CC[C@]4(C)[C@H]3CC[C@]12C
Response given: 20 to 50 mg/mL

====

Assay: Solubility of brexanolone by visual assessment of dissolution in various solvents
Format: physicochemical
Details: organic solvent or mixture, thermodynamic from solid; solvent Ethyl Acetate (EtOAc); RT (~22° C.); read-out: Solubility at RT
value_type: solubility

Challenge: Tell us which solubility value is on record for CC(=O)[C@H]1CC[C@H]2[C@@H]3CC[C@H]4C[C@H](O)CC[C@]4(C)[C@H]3CC[C@]12C
Response given: 21 to 52 mg/mL

====

Experiment: Solubility of brexanolone by visual assessment of dissolution in various solvents
Format: physicochemical
Settings: organic solvent or mixture, thermodynamic from solid; solvent Methanol (MeOH); 40° C. for 1 h
value_type: solubility at 1 h

Challenge: Tell us which solubility at 1 h value is on record for CC(=O)[C@H]1CC[C@H]2[C@@H]3CC[C@H]4C[C@H](O)CC[C@]4(C)[C@H]3CC[C@]12C [brexanolone]
Response given: > 19 mg/mL

====

Experiment: Solubility of brexanolone by visual assessment of dissolution in various solvents
Type: physicochemical
Settings: organic solvent or mixture, thermodynamic from solid; solvent Methyl t-butyl ether (MTBE); RT (~22° C.); read-out: Solubility at RT
value_type: solubility

Challenge: Tell us which solubility value is on record for CC(=O)[C@H]1CC[C@H]2[C@@H]3CC[C@H]4C[C@H](O)CC[C@]4(C)[C@H]3CC[C@]12C
Response given: 10 to 20 mg/mL

====

Assay: Solubility of brexanolone by visual assessment of dissolution in various solvents
Type: physicochemical
Conditions: organic solvent or mixture, thermodynamic from solid; solvent Methyl t-butyl ether (MTBE); 40° C. for 1 h
value_type: solubility at 1 h

Challenge: Tell us which solubility at 1 h value is on record for CC(=O)[C@H]1CC[C@H]2[C@@H]3CC[C@H]4C[C@H](O)CC[C@]4(C)[C@H]3CC[C@]12C
Response given: > 10 mg/mL
